Test: Selectivity index, ratio of GI50 for human MCF7 cells to MIC90 for active stage of Mycobacterium bovis BCG ATCC 35743
Assay type: toxicity, cell-based
Details: read-out: Selectivity Index
What selectivity ratio was measured for each of the following?

Would you mind telling me what selectivity ratio value was observed for CCCCCCCc1cc2c(=O)n(CCN=[N+]=[N-])cnc2s1 ? > 77

Let us now turn to CCCCCCCc1cc2c(=O)n(CC3CC3)cnc2s1 > 66

Let us now turn to CCCCCCc1cc2c(=O)n(CCN=[N+]=[N-])cnc2s1 > 25

Let us now turn to CCCCCc1cc2c(=O)n(CC3CC3)cnc2s1 > 20

----------
What selectivity ratio was measured for each of the following?
Experiment: Selectivity index, ratio of GI50 for human HCT116 cells to MIC90 for active stage of Mycobacterium bovis BCG ATCC 35743
Assay type: toxicity, cell-based, HCT-116
Conditions: read-out: Selectivity Index

Would you mind telling me what selectivity ratio value was observed for CCCCCc1cc2c(=O)n(CC3CC3)cnc2s1 ? 20

Let us now turn to CCCCCCCCCCc1cc2c(=O)n(CCO)cnc2s1 5

Let us now turn to CCCCCCCc1cc2c(=O)n(CC#N)cnc2s1 53

Let us now turn to CCCCCCc1cc2c(=O)n(CC3CC3)cnc2s1 13

Let us now turn to CCCCCCCc1cc2c(=O)n(CC3CC3)cnc2s1 66

----------
Assay: Selectivity index, ratio of GI50 for human A549 cells to MIC90 for active stage of Mycobacterium bovis BCG ATCC 35743
Assay type: toxicity, cell-based
Conditions: read-out: Selectivity Index
property label: selectivity ratio

Would you mind telling me what selectivity ratio value was observed for CCCCCn1cnc2sc(CC)cc2c1=O ? > 10

Let us now turn to CCCCCCCc1cc2c(=O)n(CC#N)cnc2s1 > 53

Let us now turn to CCCCCCCc1cc2c(=O)n(CC3CC3)cnc2s1 > 66

Let us now turn to CCCCCCc1cc2c(=O)n(CC3CC3)cnc2s1 > 73

Let us now turn to CCCCCCCc1cc2c(=O)n(CCN=[N+]=[N-])cnc2s1 > 77

Let us now turn to CCCCCc1cc2c(=O)n(CC3CC3)cnc2s1 > 20

Let us now turn to CCCCCCCCCCc1cc2c(=O)n(CCO)cnc2s1 > 5

----------
Assay: Cytotoxicity against human A549 cells incubated for 1 to 11 days by MTT assay
Assay type: cell-based
Conditions: A549 cells
What GI50 was measured for each of the following?
Respond with the bare value in µg/mL.

Would you mind telling me what GI50 value was observed for CCCCCCc1cc2c(=O)n(CCN=[N+]=[N-])cnc2s1 ? 16.2

Let us now turn to C=CCCCCCCCc1cc2c(=O)n(CCBr)cnc2s1 45.4

Let us now turn to CCCCCCCCCCc1cc2c(=O)n(CCBr)cnc2s1 35.1

Let us now turn to CCCCCc1cc2c(=O)n(CCC)cnc2s1 27.4

----------
What GI50 was measured for each of the following?
Assay: Cytotoxicity against human A549 cells incubated for 1 to 11 days by MTT assay
Assay type: cell-based
Conditions: A549 cells

Would you mind telling me what GI50 value was observed for CCCCCCCc1cc2c(=O)n(CC#N)cnc2s1 ? > 100 µg/mL

Let us now turn to CCCCCCCc1cc2c(=O)n(CCN=[N+]=[N-])cnc2s1 > 100 µg/mL

Let us now turn to CO[C@H]1/C=C/O[C@@]2(C)Oc3c(C)c(O)c4c(O)c(c(/C=N/N5CCN(C)CC5)c(O)c4c3C2=O)NC(=O)/C(C)=C\C=C\[C@H](C)[C@H](O)[C@@H](C)[C@@H](O)[C@@H](C)[C@H](OC(C)=O)[C@@H]1C [RIFAMPIN] > 100 µg/mL

Let us now turn to CCCCCn1cnc2sc(CC)cc2c1=O > 100 µg/mL

Let us now turn to CCCCCCc1cc2c(=O)n(CC3CC3)cnc2s1 > 100 µg/mL

Let us now turn to CCCCCCCc1cc2c(=O)n(CC3CC3)cnc2s1 > 100 µg/mL

Reference source for all entries: ChEMBL document CHEMBL3774361
